Exercise: for every item that follows, state its recorded peptide concentration at FI=0.5.
- assayTarget: T1, H-2Db MHC class I molecule on RMA-S cells (mouse, UniProt P01887 21-119; P01899 25-362)
- T1 construct: MHC class I stabilised on RMA-S (H-2b) cells by added peptide; detected with anti-H-2Db monoclonal antibody clone 28-14-8; also called H-2Db molecules
- T1 sequence (MHC heavy, looked up): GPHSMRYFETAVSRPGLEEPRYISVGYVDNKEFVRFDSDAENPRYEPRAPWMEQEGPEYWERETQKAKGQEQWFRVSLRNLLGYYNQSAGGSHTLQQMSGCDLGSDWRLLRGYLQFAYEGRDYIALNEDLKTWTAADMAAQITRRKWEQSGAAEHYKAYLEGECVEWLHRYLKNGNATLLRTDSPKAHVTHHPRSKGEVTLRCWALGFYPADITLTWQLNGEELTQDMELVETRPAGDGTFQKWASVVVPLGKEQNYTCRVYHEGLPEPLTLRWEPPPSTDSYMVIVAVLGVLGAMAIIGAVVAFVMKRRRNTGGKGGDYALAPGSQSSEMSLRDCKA
- T1 sequence (b2m, looked up): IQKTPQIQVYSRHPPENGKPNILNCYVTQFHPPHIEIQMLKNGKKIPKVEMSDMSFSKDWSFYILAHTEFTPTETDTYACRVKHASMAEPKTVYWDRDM
- assayNotes: RMA-S MHC class I stabilisation assay, flow cytometry with anti-H-2Db antibody

Would you be so kind as to report peptide concentration at FI=0.5 for each listed record?
1. LLGRNSFEV (peptide, UniProt P04637 264-272, looked up, range 264-272; also called wild type P53 264-272) [Human P53 264-272 peptide]
2. RAHYNIVTF (peptide, UniProt P03129 49-57, looked up, range 49-57; also called HPV E7 49-57) [Human Papilloma Virus (HPV)16E7 49-57 peptide]
3. FSNSTNDILI (Synthetic peptide (Sigma); also called VEGFR-2/KDR3) [KDR3 (murine VEGFR-2/KDR peptide FSNSTNDILI)]

Output:
> 200 µM
~12.5 µM
~3 µM

Input: Need peptide concentration at FI=0.5 of VILTNPISM (Synthetic peptide (Sigma); also called VEGFR-2/KDR2) [KDR2 (murine VEGFR-2/KDR peptide VILTNPISM)] , thanks.
Output: ~24 µM
